B1: C1orf137 (parent)
chain: RQHHHQSSFPGSLPQETNLTLKVC

Variants of: B1
Assay procedure: protein stability index of a GFP-peptide fusion (GPS, HEK-293T) (PSI 1-6); higher = more stable;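 also: lentivirally expressed fusions sorted by FACS into six bins by GFP to DsRed ratio, PSI derived from sequencing read proportions per bin multiplied by bin number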
Condition notes: c terminus: a fixed tail appended
Metric name: protein stability index

INSERT INTO measurements (mutation_string, data_value) VALUES
  ('L19Y', 2.95),
  ('L13G', 2.98),
  ('H3V', 3.09);

Entry source: the supplement of paper PMC10567573
